Hey, just so you know, these numbers are from paper PMC10976160.

experiment: Pharmacokinetics in control rats after gavage of JYPs; type: in vivo, Sprague Dawley (SD) rats; settings: oral JYPs medium dose 2.160 g/kg/d (2nd of 3 values)
Each record here notes measured AUMC(0-t).

// solved cases for AUMC(0-t) follow
[
  {
    "COMPOUND": "CCCC=C1OC(=O)C2=C1CCC1C3C=C4C(=O)OC(=CCCC)C4(CC3)C21 (stereo not shown) [Levistilide A]",
    "AUMC(0-t)": "197.79±26.58 ng/mL*(h)²"
  },
  {
    "COMPOUND": "CCC/C=C1\\OC(=O)C2=C1CCC=C2 [Z-Ligustilide]",
    "AUMC(0-t)": "291.74± 50.18 ng/mL*(h)²"
  },
  {
    "COMPOUND": "C[C@H]1O[C@@H](O[C@H]2CC[C@@]3(C)[C@@H](CC[C@]4(C)[C@@H]3C=C[C@]35OC[C@@]6(CCC(C)(C)C[C@H]63)[C@@H](O)C[C@]54C)[C@]2(C)CO)[C@H](O)[C@@H](O[C@@H]2O[C@H](CO)[C@@H](O)[C@H](O)[C@H]2O)[C@H]1O",
    "AUMC(0-t)": "935.87± 261.97 ng/mL*(h)²"
  }
]

Attention now shifts to the item below.
Prompt: Find the recorded AUMC(0-t) belonging to C[C@H]1O[C@@H](O[C@H]2CC[C@@]3(C)[C@@H](CC[C@]4(C)[C@@H]3C=C[C@]35OC[C@@]6(CCC(C)(C)C[C@H]63)[C@H](O)C[C@]54C)[C@]2(C)CO)[C@H](O)[C@@H](O[C@@H]2O[C@H](CO)[C@@H](O)[C@H](O)[C@H]2O)[C@H]1O and report it.
Completion: 662.12± 211.50 ng/mL*(h)²

====

experiment: Pharmacokinetics in ADHD model rats after gavage of JYPs; type: in vivo, SHR rats (ADHD model); settings: male, SHR, rat, plasma, 1.08 g/kg/day; ADHD model rats, oral JYPs low dose 1.080 g/kg/d (1st of 3 values)
READOUT_NAME: AUC(0-t) (ng·h/mL)

1 = CCC/C=C1\OC(=O)C2=C1CCC=C2 [Z-Ligustilide]
2 = C[C@H]1O[C@@H](O[C@H]2CC[C@@]3(C)[C@@H](CC[C@]4(C)[C@@H]3C=C[C@]35OC[C@@]6(CCC(C)(C)C[C@H]63)[C@@H](O)C[C@]54C)[C@]2(C)CO)[C@H](O)[C@@H](O[C@@H]2O[C@H](CO)[C@@H](O)[C@H](O)[C@H]2O)[C@H]1O
3 = C[C@H]1O[C@@H](O[C@H]2CC[C@@]3(C)[C@@H](CC[C@]4(C)[C@@H]3C=C[C@]35OC[C@@]6(CCC(C)(C)C[C@H]63)[C@H](O)C[C@]54C)[C@]2(C)CO)[C@H](O)[C@@H](O[C@@H]2O[C@H](CO)[C@@H](O)[C@H](O)[C@H]2O)[C@H]1O
Prompt: Put the compounds in ascending order of AUC(0-t). Give the labels in the order specified.
Completion: 1, 3, 2
(1: 36.7 ng·h/mL, 3: 91.3 ng·h/mL, 2: 164 ng·h/mL)

====

assay: Pharmacokinetics in control rats after gavage of JYPs; format: in vivo, Sprague Dawley (SD) rats; settings: male, Sprague-Dawley, rat, plasma, 2.16 g/kg/day, oral JYPs medium dose 2.160 g/kg/d (2nd of 3 values), read-out: MRT(0-t)
READOUT_NAME: MRT last (h)

[
  {
    "COMPOUND": "CCC/C=C1\\OC(=O)C2=C1CCC=C2 [Z-Ligustilide]",
    "ENDPOINT_UNIT": "h",
    "MEASURED": 8.96
  },
  {
    "COMPOUND": "CCCC=C1OC(=O)C2=C1CCC1C3C=C4C(=O)OC(=CCCC)C4(CC3)C21 (stereo not shown) [Levistilide A]",
    "ENDPOINT_UNIT": "h",
    "MEASURED": 9.23
  },
  {
    "COMPOUND": "C[C@H]1O[C@@H](O[C@H]2CC[C@@]3(C)[C@@H](CC[C@]4(C)[C@@H]3C=C[C@]35OC[C@@]6(CCC(C)(C)C[C@H]63)[C@H](O)C[C@]54C)[C@]2(C)CO)[C@H](O)[C@@H](O[C@@H]2O[C@H](CO)[C@@H](O)[C@H](O)[C@H]2O)[C@H]1O [Saikosaponin D]",
    "ENDPOINT_UNIT": "h",
    "MEASURED": 6.87
  },
  {
    "COMPOUND": "C[C@H]1O[C@@H](O[C@H]2CC[C@@]3(C)[C@@H](CC[C@]4(C)[C@@H]3C=C[C@]35OC[C@@]6(CCC(C)(C)C[C@H]63)[C@@H](O)C[C@]54C)[C@]2(C)CO)[C@H](O)[C@@H](O[C@@H]2O[C@H](CO)[C@@H](O)[C@H](O)[C@H]2O)[C@H]1O [Saikosaponin A]",
    "ENDPOINT_UNIT": "h",
    "MEASURED": 6.42
  }
]
